tested on: SN12C renal; assay: NCI-60 one-dose screen, 48 h (100 = growth as untreated, 0 = no growth, -100 = all killed); settings: 10 µM
Compounds without any hit were thinned out: in the full panel of roughly 83,000, 20% have a hit.
Note to self: values exactly at 60% are yes. So growth at or above 60% is yes, below is no.

O=c1oc2c3ccc4cnccc4c3[nH]c2c2ccccc12 | yes
CC[C@@]1(C(N)=O)CC2C=CC1C2 (stereo not given in full) | yes
COc1cccc(C(=O)NNc2nc(N3CCN(C4CCCCC4)CC3)nc(N3CCN(C(c4ccccc4)c4ccccc4)CC3)n2)c1 | no
CCOC(=O)c1c(Cl)c2c(n1Cc1cccc(OC)c1)-c1oncc1CC2 | no

[in] Does growth meet or surpass 60% for O=C(Nc1ccc(OCc2nnc(-c3ccccc3)o2)c(F)c1)Nc1ccc(Cl)c(Cl)c1 ?
[out] yes

* * *

system: 786-0 renal; test: NCI-60 one-dose screen, 48 h (100 = growth as untreated, 0 = no growth, -100 = all killed); details: 10 µM
This is part of a sample that, as a whole, favours compounds with a hit. Of some 83,000 tested, about 20% had one in any assay.
Below, each entry is listed alongside its reported growth.
Respond with the bare value in %.

N#C/C(=C\N1C(=O)/C(=C/c2cccc([N+](=O)[O-])c2)SC1=S)c1nc2ccccc2s1 | 88.3
CCCCn1c(=O)[nH]c(N)c(C(c2ccc(Cl)cc2)c2c(N)[nH]c(=O)n(CCCC)c2=O)c1=O | 41
CC(C)C[C@H](NC(=O)CCn1ccc2ccccc2c1=O)B(O)O | 48.5
COc1ccc(/C=C(\c2cc(OC)c(OC)c(OC)c2)c2nnc(-c3cccs3)o2)cc1 | 48.9
O=C1NN(c2ccccc2)C(c2cccnc2)=N/C1=C\c1cccnc1 | 98.8
CS(=O)(=O)Nc1ccc(Nc2c3ccccc3nc3cc(Cl)ccc23)cc1 | 19.6
CN1/C(=C\C(I)C(I)C2=[N+](C)c3ccccc3C2(C)C)C(C)(C)c2ccccc21 (stereo unspecified) | 23.2
O=C(/C=C/c1nnc2n(Cc3ccccc3)c(=O)c3c4c(sc3n12)CCCC4)c1ccccc1 | 83.8
Cn1cnc([N+](=O)[O-])c1/C=C1\Oc2ccc(Cl)cc2C1=O | 91.9
O=C(Cn1ccc(=O)[nH]c1=O)c1ccc([N+](=O)[O-])o1 | 108

[in] Record request: growth value, item COc1ccc(-c2cc(/C=C3\C(=O)Nc4cc(Cl)ccc43)[nH]n2)cc1
[out] 52.1

[in] For the compound shown here, CCCCc1ccc(NC(=O)N(CCCl)N=O)cc1 , give the reported growth.
[out] 94.2

[in] I have this compound here, C=CCNCCCN1C(=O)c2ccc3c4c(ccc(c24)C1=O)C(=O)N(CCCNCC=C)C3=O , and I need its recorded growth.
[out] -31

[in] Return reported growth; argument: Clc1cc(Cl)c(Cl)c(-c2nc(-c3cccnc3)cs2)c1
[out] 99.1

[in] Look at this compound and give its reported growth. COc1ccc(C2C=C(c3ccc(OC)c(OC)c3)N=C3SC=CN32)c(Br)c1 (stereo unspecified)
[out] 92.3

* * *

system: OVCAR-3 ovarian; test: NCI-60 one-dose screen, 48 h; details: 10 µM
The panel holds about 83,000 compounds, 20% with a hit somewhere; the sample as a whole holds those more often. Active and inactive are the calls of the source. Rule for the calls: active = growth percent below 10; inactive = the rest.
Outcomes you can answer with include only these: active, inactive

Example cases with answers are listed next.
CCOC(=O)c1cc2c(n1Cc1cc(OC)cc(OC)c1)-c1oncc1CC2 | active
COC(=O)c1c(C)nc(Nc2nc3ccccc3s2)nc1-c1ccc(Cl)cc1Cl | inactive
COc1ccc(CSc2nc3cc(OC)c(OC)cc3c(=O)n2-c2ccc(OC)cc2OC)cc1 | inactive

Next:
[in] Any idea what this test logged for O=C(O)CNS(=O)(=O)c1ccc(OCCOc2ccc(S(=O)(=O)NCC(=O)O)cc2)cc1 ?
[out] inactive

* * *

test system: OVCAR-4 ovarian; experiment: NCI-60 one-dose screen, 48 h; conditions: 10 µM
This is part of a sample that, as a whole, favours compounds with a hit. Of some 83,000 tested, about 20% had one in any assay. Calls of active or inactive are those of the source. How the source made its calls: active means growth percent below 10; inactive means the rest.
Classes to choose from: YES for active, NO for inactive

Answered examples (9):
CCCCn1c(=O)[nH]c(N)c(C(c2ccc(Cl)cc2)c2c(N)[nH]c(=O)n(CCCC)c2=O)c1=O | NO
CCc1cc2n(n1)-c1ncc(C(=O)OC)cc1Oc1ccccc1-2 | NO
CCCN(CCC)CCCNC(=O)c1cc2c(-c3ccc(OC)c(OC)c3)nn(C)c2s1 | NO
O=C(c1ccccc1)C(Nc1ccccc1)c1ccccc1 (stereo not given) | NO
C[N+]1(CC2CO2)CCCCCC1 (stereo not given) | NO
COc1ccc(-c2nc(-c3nc4ccc(C)cc4[nH]3)c3ccccn23)cc1 | NO
CNCCCNCCCN1C(=O)c2ccc3c4c(ccc(c24)C1=O)C(=O)N(CCCNCc1ccccc1OC)C3=O | YES
COc1ccc(C2C=C(c3ccc(Cl)c(Cl)c3)N=C3SC(C)=CN32)cc1OC (stereo not given) | NO
Nc1nc2c(nnn2C2CC(O)C(CO)O2)c(=O)[nH]1 (stereo not given) | NO

Now examine the next entry.
[in] How did this test come out for CCN(CC)CCOC(=O)c1ccc(NC(=O)Nc2cccc(Cl)c2)cc1 ?
[out] NO

* * *

Test system: MCF7 breast
Assay: NCI-60 one-dose screen, 48 h
Settings: 10 µM
Experimental: Growth inhibition of the MCF7 human tumor cell line is measured as a screen for anti-cancer activity. Cells are grown in 96 well plates and exposed to the test compound for 48 hours. Compounds are tested at a single concentration, which is 10^-5 M for most compounds. The reported endpoint is percent growth (GI% or GIPRCNT), where numbers from 0 - 100% represent growth inhibition, and numbers from -100% - 0 represent cell death. For example, a value of 40 represents 60% growth inhibition. […]
The panel holds about 83,000 compounds, 20% with a hit somewhere; the sample as a whole holds those more often. Active and inactive are the calls of the source. The calls were made as follows: active = growth percent below 10; inactive = the rest.
One label from this list, please: active, inactive

[in] Entry O=CNc1c(Cl)cc2c(c1Cl)Cc1cc([N+](=O)[O-])ccc1-2 : call = ?
[out] inactive

[in] // return assay outcome for Clc1ccc(-c2nc(-c3cccs3)cn3ccnc23)cc1
[out] inactive

[in] What did the test return for CCOC(=O)C1=C(Nc2ccc(OC)cc2)C(N)=NC1=N ?
[out] inactive

[in] // return assay outcome for CCOC(=O)[C@@H](Cc1ccccc1)NC(=O)c1[nH]c2ccc(Cl)cc2c(=O)c1C
[out] inactive

[in] State the result this test recorded for CCCCCCCCCCCCCCCC(=O)N1CCN(C)CC1 .
[out] inactive

* * *

test system: HOP-92 NSCLC; assay: NCI-60 one-dose screen, 48 h (100 = growth as untreated, 0 = no growth, -100 = all killed); conditions: 10 µM
About 83,000 compounds went through this panel and 20% of them were active in at least one assay; those are over-represented in the sample as a whole.
Below is a list of entries, each paired with its recorded growth value.
Your answer should be a plain number; it is taken to be in %.

Nc1c(C(=O)Nc2ccccc2F)sc2nc3c(cc12)C(=O)CCC3 | 53.6
O=C(COCc1c(-c2ccccc2)no[n+]1[O-])Nc1nc(-c2ccc(Cl)cc2)cs1 | 86.8

[in] Could you tell me which growth is on file for Cn1c(=O)c2[nH]c(C(O)c3ccc(Cl)cc3)nc2n(C)c1=O (stereo not drawn) ?
[out] 76.1

* * *

tested on: HS 578T breast; test: NCI-60 one-dose screen, 48 h (100 = growth as untreated, 0 = no growth, -100 = all killed); conditions: 10 µM
About 83,000 compounds went through this panel and 20% of them were active in at least one assay; those are over-represented in the sample as a whole.
# growth per record follows
// units = %; emit number, no label

Worked examples follow.
COc1ccccc1S(=O)(=O)Nc1ccc2c(c1)CN(C)C(=O)N2 | 33.7
CCCCOCC(=O)NC(NP(=O)(N(C)C)N(C)C)C(Cl)(Cl)Cl (stereo not given) | 113
CC(=O)OCC(COC(C)=O)(COC(C)=O)COC(C)=O | 101
S=C(Cc1ccc(-c2ccccc2)cc1)N1CCOCC1 | 97.8
CC(=O)n1nc(C(=O)OC(C)(C)C)c2cc(F)c(F)cc21 | 106

[in] Which measured growth value corresponds to CCOC(=O)c1c(C)n(-c2ccc(Cl)cc2)c2ccc(OC(=O)/C=C/c3ccccc3)cc12 ?
[out] 82.6

[in] Query (compound): Cc1ncc([N+](=O)[O-])n1CCOc1ccc(C(=O)/C=C/c2ccc(C(F)(F)F)cc2)cc1 ; field requested: growth
[out] 66.9

[in] Query: growth; subject: CCOC(=O)c1c(O)c2cc(-c3ccccc3)nc(OCC)c2c(=O)n1C
[out] 93

[in] If you can, please state the reported growth value of CC(=O)c1c(O)cc2c3c1OC(C)(C)C1CCC(C)(CC31)O2 (stereo not given) .
[out] 115

[in] What growth value was documented for this compound, O=C(Nc1ccc(OCc2nnc(-c3ccccc3)o2)c(F)c1)Nc1ccc(Cl)c(Cl)c1 ?
[out] 63.2
